assay: Cmax in monkey at 0.28 mg/kg, po by cassette assay; type: ADME, organism-based, Macaca mulatta; design: dose 0.28 mg/kg, route oral; conditions: rhesus monkey, in vivo
QUANTITY: Cmax (ng/mL)
Give your result in ng/mL as a bare value.

Which value of Cmax has been reported for O=C(O)c1ccc(-c2ccc(CCNC[C@H](O)c3cccnc3)cc2)cc1OC1CCCCC1 in the records?
18.6

====

molecular target: UniProtKB P08588; test: Agonist activity at human recombinant beta-1 adrenergic receptor expressed in CHO cells assessed as cAMP accumulation by enzyme immuno assay
Sequence (P08588 whole entry): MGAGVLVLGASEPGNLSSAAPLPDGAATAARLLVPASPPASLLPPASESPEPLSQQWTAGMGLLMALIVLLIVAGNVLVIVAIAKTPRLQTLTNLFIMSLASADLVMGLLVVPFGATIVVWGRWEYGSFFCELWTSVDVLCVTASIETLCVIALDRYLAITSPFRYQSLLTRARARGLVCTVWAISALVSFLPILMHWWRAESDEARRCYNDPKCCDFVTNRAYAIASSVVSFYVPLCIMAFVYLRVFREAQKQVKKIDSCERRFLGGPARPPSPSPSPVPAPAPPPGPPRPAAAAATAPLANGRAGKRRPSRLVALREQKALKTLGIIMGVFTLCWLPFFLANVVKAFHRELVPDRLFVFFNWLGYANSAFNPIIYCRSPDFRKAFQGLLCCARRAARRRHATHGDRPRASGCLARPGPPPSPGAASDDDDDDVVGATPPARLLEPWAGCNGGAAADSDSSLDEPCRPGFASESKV
Measured EC50, listed per entry for reference.
Give your result in nM as a bare value.

Examples with their reported EC50 follow.
chemical_string=O=C(O)c1ccc(-c2ccc(OCCNC[C@H](O)c3ccccc3)cc2)cc1OC1CCCCC1 units_of_measure=nM numeric_value=91
chemical_string=C[C@@H](Cc1ccc(-c2ccc(C(=O)O)cc2)cc1)NC[C@H](O)c1cccc(Cl)c1 units_of_measure=nM numeric_value=12

Continue with the next compound.
Which value of EC50 has been reported for COc1cc(-c2ccc(C[C@@H](C)NC[C@H](O)c3ccccc3)cc2)ccc1C(=O)O in the records?
83

All values here come from ChEMBL document CHEMBL1157533.
